- tested.on: Mannose-6-phosphate isomerase (Homo sapiens) (UniProt P34949)
- Sequence (P34949 whole entry, looked up): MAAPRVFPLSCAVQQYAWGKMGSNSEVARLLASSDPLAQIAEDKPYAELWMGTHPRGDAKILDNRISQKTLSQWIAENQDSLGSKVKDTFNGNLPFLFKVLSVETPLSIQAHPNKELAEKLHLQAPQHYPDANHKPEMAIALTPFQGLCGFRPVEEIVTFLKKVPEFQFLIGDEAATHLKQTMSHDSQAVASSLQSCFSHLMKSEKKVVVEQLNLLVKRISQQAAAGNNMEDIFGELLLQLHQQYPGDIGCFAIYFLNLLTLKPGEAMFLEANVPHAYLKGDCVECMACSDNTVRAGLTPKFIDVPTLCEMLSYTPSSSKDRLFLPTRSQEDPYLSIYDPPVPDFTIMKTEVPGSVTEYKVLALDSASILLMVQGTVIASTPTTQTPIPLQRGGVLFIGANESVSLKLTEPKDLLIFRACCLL
- assay.notes: MPI inhibition at elevated mannose 6-phosphate – biochemical, fluorescence intensity, high mannose 6-phosphate, primary screen (AID 1220)
- experimental.context: recombinant PMI enzyme, coupled fluorescence intensity; at 20 µM; stronger effect = higher value
The whole screen tested about 190,000 compounds, of which about 1,300 (0.68%) were called active. The entries come from a sample that favours actives as a whole.
observation.type: inhibition (%)
Numbers only, in %.

Below are worked cases with known answers.
1) O=C(O)c1cc(-c2ccc(/C=C3/SC(=S)N(Cc4ccccc4)C3=O)o2)ccc1Cl	-34.8
2) O=C(NO)c1cc(OCC(F)(F)F)ccc1OCC(F)(F)F	-2.8
3) COc1ccc(N2C(=O)/C(=C\c3ccco3)N=C2SCC(=O)N(C(C)C)C(C)C)cc1Cl	2.5
4) Cn1c(CN2CCCC2)nc2cc(NC(=O)c3cccs3)ccc21	-21.8
5) Cc1cccc(C(c2c(C)nn(-c3ccccc3)c2N)c2c(C)nn(-c3ccccc3)c2N)c1	16.3
6) COC(=O)c1nn(-c2ccc(C)cc2)ccc1=O	-2.7
7) COc1ccc(NC(=O)c2cc3c(=O)n4ccccc4nc3n2C)c(OC)c1	6.3
8) O=C1NC(=S)S/C1=C\c1ccc(SCc2ccccc2)o1	66.9

For each entry beneath this line, provide reported inhibition.
1. O=C1NC(=S)S/C1=C/c1ccc(N2CCOCC2)o1
2. COc1ccc(CN2CCCC(CNC(=O)c3ccc(F)cc3)C2)c(F)c1 (stereo not drawn)
3. CC1CCCCC1NCC(=O)NCc1ccc(F)cc1 (stereo not drawn)
4. O=C(CN(c1ccc(Br)cc1)S(=O)(=O)c1ccc(Cl)c([N+](=O)[O-])c1)NCCc1ccccc1

[reply]
1. -14
2. -6
3. -10.5
4. -3.9

###

- tested.on: Mannose-6-phosphate isomerase (Homo sapiens) (UniProt P34949)
- assay.notes: MPI inhibition at elevated mannose 6-phosphate – biochemical, fluorescence intensity, high mannose 6-phosphate, primary screen (AID 1220)
- experimental.context: recombinant PMI enzyme, coupled fluorescence intensity; at 20 µM
In all, about 190,000 compounds went through this assay and about 1,300 (0.68%) were called active. Rule as the data show it: active = inhibition above about 50%; inactive = the rest. The entries come from a sample that favours actives as a whole.
Could you please pick one outcome from this set? True = active, False = inactive

1. Oc1ccc(N=Cc2ccc(O)c(O)c2)cc1	True
2. O=Cc1ccc(O)c(O)c1	False
3. NC(N)=N/N=C/c1ccc(OCc2ccccc2)cc1	False

[ask] Recorded test outcome, item "Oc1ccc(N=Cc2ccc(OCc3ccccc3)cc2)cc1"
[reply] True

[ask] Recorded test outcome, item "Cc1ccc2cccnc2c1N"
[reply] True

[ask] Recorded test outcome, item "Cc1ccc2ncccc2c1[N+](=O)[O-]"
[reply] False

[ask] Recorded test outcome, item Cc1cccc[n+]1C1C(c2ccc([N+](=O)[O-])cc2)C(C#N)=C(C(=C=[N-])C#N)NC1(O)C1CC1 (configuration not stated)
[reply] False

[ask] Recorded test outcome, item "Oc1ccc(/C=N/N=C/c2ccc(O)cc2)cc1"
[reply] False

###

- tested.on: Mannose-6-phosphate isomerase (Homo sapiens) (UniProt P34949)
- assay.notes: MPI inhibition at elevated mannose 6-phosphate – biochemical, fluorescence intensity, high mannose 6-phosphate, primary screen (AID 1220)
- experimental.context: recombinant PMI enzyme, coupled fluorescence intensity; at 20 µM; stronger effect = higher value
In all, about 190,000 compounds went through this assay and about 1,300 (0.68%) were called active. This excerpt belongs to a sample that is enriched for actives.
observation.type: inhibition (%)
Answers are plain numbers, in %.

Below are worked cases with known answers.
1. COc1ccccc1C(=O)Nc1ccccc1SC	10.6
2. COc1cccc(NC(=S)N(Cc2ccc(Cl)cc2)Cc2ccc(C(=O)O)cc2)c1	-30.6
3. COc1ccc(-c2[nH]ncc2CNCC(C)(C)N2CCOCC2)cc1F	8.1
4. Oc1ccccc1C1=NCCNC(C(F)(F)F)=C1	-3.4
5. Oc1c(C2=NCCNC(C(F)(F)F)=C2)ccc2ccccc12	54.4

Alright, here's another compound for you.
Query "FC(F)(F)C1=CC(c2ccccc2)=NCCN1" yields inhibition of 0.2

###

- tested.on: Mannose-6-phosphate isomerase (Homo sapiens) (UniProt P34949)
- assay.notes: MPI inhibition at elevated mannose 6-phosphate – biochemical, fluorescence intensity, high mannose 6-phosphate, primary screen (AID 1220)
- experimental.context: recombinant PMI enzyme, coupled fluorescence intensity; at 20 µM
The campaign covered roughly 190,000 compounds. About 1,300 (0.68%) were called active. No stated cut-off is given here; in the data, active means inhibition above about 50%; inactive means the rest. The full list was thinned out, with actives kept by preference.
Could you please pick one outcome from this set? active, inactive

Recorded results for 6 compounds are shown here.
1) CCC(=O)NC(c1cccs1)c1cc([N+](=O)[O-])c2cccnc2c1O (stereo unspecified)	inactive
2) CN1C(=O)c2cccc3c(S(=O)(=O)NCc4ccco4)ccc1c23	inactive
3) O=C1CC(N2CCN(c3ccc(F)cc3)CC2)C(=O)N1c1ccc2c(c1)OCO2 (stereo unspecified)	inactive
4) CCN1C(=O)c2cccc3c(NC(=O)c4ccc(S(=O)(=O)N(C)C)cc4)ccc1c23	inactive
5) O=S1(=O)N=C(N2CCc3ccccc3C2)c2ccccc21	inactive
6) CCN1C(=O)c2cccc3c(NC(=O)C(C)(C)C)ccc1c23	inactive

[ask] Recorded test outcome, item "CCOc1cc(C(=O)Nc2ccc3c4c(cccc24)C(=O)N3CC)cc(OCC)c1OCC"
[reply] inactive

[ask] Recorded test outcome, item "Cc1ccc([N+](=O)[O-])c2cccnc12"
[reply] inactive

[ask] Recorded test outcome, item CC(=O)NC(c1ccccc1)c1cc([N+](=O)[O-])c2cccnc2c1O (stereo unspecified)
[reply] active

[ask] Recorded test outcome, item "c1ccc(CC2CCN(C3=Nc4cccc5cccc3c45)CC2)cc1"
[reply] inactive

[ask] Recorded test outcome, item "Nc1cc(=O)[nH]c(SCC(=O)Nc2cccc(Cl)c2Cl)n1"
[reply] inactive

[ask] Recorded test outcome, item O=C1CC(N2CCN(c3ccc(O)cc3)CC2)C(=O)N1c1ccc2c(c1)OCO2 (stereo unspecified)
[reply] active

[ask] Recorded test outcome, item "Oc1ccc(N=Nc2c(O)ccc3ccccc23)cc1"
[reply] inactive

[ask] Recorded test outcome, item CC1CN(c2nc3ccccc3cc2-c2ccccc2)CC(C)O1 (stereo unspecified)
[reply] inactive

[ask] Recorded test outcome, item "CCOC(=O)N1CCN(c2cccc(C)c2C)CC1"
[reply] inactive

###

- tested.on: Mannose-6-phosphate isomerase (Homo sapiens)
- assay.notes: MPI inhibition at elevated mannose 6-phosphate – biochemical, fluorescence intensity, high mannose 6-phosphate, primary screen (AID 1220)
- experimental.context: recombinant PMI enzyme, coupled fluorescence intensity; at 20 µM
About 1,300 (0.68%) of roughly 190,000 compounds were called active. No stated cut-off is given here; in the data, active means inhibition above about 50%; inactive means the rest. The sample holds actives, similar compounds and a random draw of the others, so the mix is not that of the screen.
Could you please pick one outcome from this set? active, inactive

Recorded results for 10 compounds are shown here.
1. c1ccc2cc3c(NCCN4CCOCC4)ccnc3cc2c1	active
2. CC(C)COc1ccc(S(=O)(=O)n2cc(F)c(=O)[nH]c2=O)cc1	active
3. Cc1c(Cl)sn(-c2ccc(Cl)cc2)c1=O	inactive
4. Cn1cc(Br)c(C(=O)NN2C(=O)C3C4C=CC(C5CC45)C3C2=O)n1 (centres undefined)	inactive
5. CC1OC(Nc2cccc3ccccc23)C(O)C(O)C1O (centres undefined)	active
6. Cc1c(Br)c([N+](=O)[O-])nn1CC(=O)NCCc1c[nH]c2ccccc12	inactive
7. Nc1ccc(Nc2ccccc2N)cc1	active
8. O=c1ccnc(NCCc2ccccc2)[nH]1	inactive
9. Cc1cc(C2=NNC(=NCCc3ccccc3)SC2)c(C)n1CC1CCCO1 (centres undefined)	inactive
10. CC(CCn1cccn1)NC(=O)c1cc(COc2ccc(F)cc2F)on1 (centres undefined)	inactive

[ask] Recorded test outcome, item "CNC(=O)C(=O)NCCCN1CCOCC1"
[reply] inactive

[ask] Recorded test outcome, item "CCCNC(=O)Nc1cc(OCC)c(N2CCOCC2)cc1OCC"
[reply] active

[ask] Recorded test outcome, item "c1ccc(CCNc2ncnc3ccccc23)cc1"
[reply] inactive

[ask] Recorded test outcome, item "c1ccc(CCNc2ccnc3cc4ccccc4cc23)cc1"
[reply] active

[ask] Recorded test outcome, item "Cc1c(/C=N\NC(=O)c2ccc(F)cc2)cnn1C"
[reply] inactive

[ask] Recorded test outcome, item "CCn1c(SCC(=O)c2ccc(C)cc2)nnc1-c1ccoc1C"
[reply] inactive

[ask] Recorded test outcome, item "O=C(NC(=S)Nc1cc(C(F)(F)F)ccc1N1CCOCC1)c1sc2ccccc2c1Cl"
[reply] inactive

[ask] Recorded test outcome, item "COCCN(C(=O)CSc1nnc(-c2ccccc2F)n1C)c1c(N)n(Cc2ccccc2)c(=O)[nH]c1=O"
[reply] inactive

[ask] Recorded test outcome, item "COc1ccccc1-c1coc2cc(OC(=O)/C=C/c3ccccc3)ccc2c1=O"
[reply] active

[ask] Recorded test outcome, item CN1C(=O)NC(NC(=O)c2ccncc2)(C(F)(F)F)C1=O (centres undefined)
[reply] inactive

[ask] Recorded test outcome, item "Cc1c(/C=N\NC(=O)c2csc3ccccc23)cnn1C"
[reply] inactive

[ask] Recorded test outcome, item "CCCCCCCCNc1nc(Cl)nc(NCCN2CCOCC2)n1"
[reply] inactive

[ask] Recorded test outcome, item "CCCOc1ccc(S(=O)(=O)n2cc(Br)c(=O)[nH]c2=O)cc1"
[reply] inactive

[ask] Recorded test outcome, item "CC(C)Cn1ccc(=O)n(CC(C)C)c1=O"
[reply] inactive
